MEASURED ON: CD28 (Homo sapiens, UniProt P10747)
ASSAY NAME: Jurkat/IL2 + CHO/OKT3 +/- PD-L1 reporter assay: PD-L1-dependent CD28 costimulation
Type: cell-based
Set-up: host or cells: Jurkat cells expressing an IL-2-luciferase reporter
COND: Table E21; Jurkat/IL2 + CHO/OKT3/PD-L1; CD80 Conc 5.0 nM
Experimental: Jurkat cells were then plated at 50 μL/well for a total of 100,000 cells per well. To each well, 25 μL of test protein was added to the Jurkat cells. […] The Jurkat cells with test or control proteins were incubated for 15 minutes at room temperature. […] Luminescence was measured with a 1 second per well integration time using a BioTek Cytation luminometer, and a relative luminescence value (RLU) was determined for each test sample.
Just a reminder that ties go to Not satisfied: only Relative Luciferase Units (RLU), CD80 Conc 5.0 nM strictly below 700 RLU counts as Satisfied.

* E35D/M47V/V68M/L85Q/K89N (protein) VIHVTKEVKEVATLSCGHNVSVEELAQTRIYWQKDKKMVLTMMSGDVNIWPEYKNRTIFDITNNLSIMILALRPSDEGTYECVVQKYENDAFKREHLAEVTLSVKAD | Not satisfied
* E35D/M47V/N48K/V68M (protein) VIHVTKEVKEVATLSCGHNVSVEELAQTRIYWQKDKKMVLTMMSGDVKIWPEYKNRTIFDITNNLSIMILALRPSDEGTYECVVLKYEKDAFKREHLAEVTLSVKAD | Not satisfied
* D46V/V68M (protein) VIHVTKEVKEVATLSCGHNVSVEELAQTRIYWQKEKKMVLTMMSGVMNIWPEYKNRTIFDITNNLSIMILALRPSDEGTYECVVLKYEKDAFKREHLAEVTLSVKAD | Satisfied
* M47L/L85Q (protein) VIHVTKEVKEVATLSCGHNVSVEELAQTRIYWQKEKKMVLTMMSGDLNIWPEYKNRTIFDITNNLSIVILALRPSDEGTYECVVQKYEKDAFKREHLAEVTLSVKAD | Satisfied
* E35D/M47L/V68M (protein) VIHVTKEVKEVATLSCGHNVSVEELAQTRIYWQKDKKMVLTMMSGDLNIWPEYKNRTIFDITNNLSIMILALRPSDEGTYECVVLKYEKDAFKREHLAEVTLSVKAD | Not satisfied

Now take the following molecule into account.
Data request: Relative Luciferase Units (RLU), CD80 Conc 5.0 nM under 700 RLU? Item: E35D/M47V (protein) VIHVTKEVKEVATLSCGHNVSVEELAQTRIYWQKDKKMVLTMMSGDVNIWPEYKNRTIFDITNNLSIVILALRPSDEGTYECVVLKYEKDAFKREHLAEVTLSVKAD
Data returned: Satisfied
